# method.notes: yeast display, Sf9 membrane polyspecificity reagent, FACS + sequencing; frameworks hold sequencing errors
property.label: polyreactivity (PSR sort gate)

Example sequences with recorded polyreactivity (PSR sort gate):
seq.string: QVQLVESGGGLVQAGGSLRLSCAASGRTSYVYAMGWYRQAPGKERELVASITGSAGSTYYADSVKGRFTISRDNAKNTVYLQMNSLKPEDTAVYYCAVLRWRSWSSPGYYWGQGTQVTVSS
property.label: polyreactivity (PSR sort gate)
result: high polyreactivity
--
seq.string: QVQLVESGGGLVQAGGSLRLSCAASGRTFNSYAMGWSRQAPGKDRELVAAISRTGASTYYADSVKGRFTISRDNAQNTVYLQMHSLKPEDTAVYYCAADANSGDGYYWGHGTQVTVSS
property.label: polyreactivity (PSR sort gate)
result: high polyreactivity
--
seq.string: QGQLVESGGGLVQAGGSLRLSCPASGRIYVFYAMGRYRQATGKEREFVATISYSGDTTYYADSVKGRFTISRDNAKNTVYLQMNSLKPEDTAVYYCAADLVPSYYYVPMGYDSWGQGTQVTVSS
property.label: polyreactivity (PSR sort gate)
result: low polyreactivity
--
seq.string: QVQLVESGGGLVQAGGSLRLSCAASGRIFYGYSMGWSRQATGKEWELVAAISSSGGSTYYADSVKGRFTISRDNAKNTVSLQRNSVKPEDTAVYYCNAQRYRPGYWYDYWGQGTQVTVSS
property.label: polyreactivity (PSR sort gate)
result: high polyreactivity

Here's the next entry for you.
## Input Query: polyreactivity (PSR sort gate); subject: "QVQLVESGGGLVQAGGSLRLSCAASGRTFRTYAMGWYRQAPGKERELVAITTSGGSTYYADSVKGRFTISRDNAKNTVYLQMNSLKPEDTAVYYGAAQWRSYYDQYGYDYWGQGTQVTVSS"
## Output low polyreactivity

---

# method.notes: yeast display, Sf9 membrane polyspecificity reagent, FACS + sequencing; frameworks hold sequencing errors
property.label: polyreactivity (PSR sort gate)

seq.string: QVQLVESGGGLVQAGGSLRLSCAASGIIFDRYAMGWYRQAPGKERELVAAITYGGGSTYYADSVKGRFTISRDNAKNTVYLQMNSLKTEDTAVYYCAAVPRSGMYYWGQGTQVTVSS
polyreactivity (PSR sort gate): high polyreactivity
//
seq.string: QVQLVESGGGLVQAGGSLRLSCAASGSIIVRYAMGWYRQAPGKERELVAAITSRGGSTYYAVSVKGRFTISRDNAKNTVYLQMNSLKPEDTAVYYCAAYGDQRSTPAIDKYGGQGTQVTVSS
polyreactivity (PSR sort gate): low polyreactivity
//
seq.string: QVQHVESGRGLVQAGGSLRLSCAASGRISYYYAMGWSRQAPGKEMELVAAITNVGGTYYADSVKGRFTISRDNAKNTVYLQMNSLKQEDTAVFYCAKDFPARHNYWYSSRFFDYWGQGTQGTVSS
polyreactivity (PSR sort gate): low polyreactivity
//
seq.string: QVQLVESGGGLVQAGGSLRLSCAASGSTFNRNGMGWYRQAPGKERELVAAISRSTTSTYYADSVKGRFTISRDNAKNTVYLQMNSLKPEDTAVYYCATPHRYRVDYWGQGTQVTVSS
polyreactivity (PSR sort gate): high polyreactivity

## Input Query: polyreactivity (PSR sort gate); subject: "QVQLVESGGGLVQAGGSLRLSCAASGLIFVNNPMGWYRQAPGKERELVAAISWSTGGSTYYADSVKGRFTISRDNAKNSVYLQMNSLKPEDTAVYYCAAQYSYGEYWGYDYWGQGTQVTVSS"
## Output low polyreactivity

---

# method.notes: yeast display, Sf9 membrane polyspecificity reagent, FACS + sequencing; frameworks hold sequencing errors
property.label: polyreactivity (PSR sort gate)

Example sequences with recorded polyreactivity (PSR sort gate):
seq.string: QVQLVESGGGLVQAGGSLRLSCAASGSTFIRNAMGWYRQAPGKERELVAVISSGGSTYYADSVKGRFTISRDNAKNTVYLQMNSLKPEDTAVYYCAAGDPQKEDYWGQGTQVTVSS
polyreactivity (PSR sort gate): low polyreactivity
--
seq.string: QVQLVESGGGLVQAGGSLRLSCAASGNTFWYYAMGWYRQAPGKERELVAAISWDGGITYYADSVKGRFTISRDNAKNTVYLQMNSLKPEDTAVYYCAAETNPKYRYTLDKYEYWGQGTQVTVSS
polyreactivity (PSR sort gate): high polyreactivity
--
seq.string: QVQLVESGGGLVQAGGSLRLSCAASGRTIGINAMGWYRQAPGKERELVAVISFGDGGTYYADSVKGRFTISRDNAKNTVYLQMNSLKPEDTEVYYCATDYQSTSVWGGHFVINPYDYWGQGTQVTVSS
polyreactivity (PSR sort gate): low polyreactivity
--
seq.string: QVQLVESGGGLVQAGGSLRLSCAASGFTFSNYDMGWYRQAPGKEREFVADIDWSGGTTYYADSVKGRFTISRDNAKNTVYLQMNSLKPEDTAVYYCATDGYRALSYKYDYWGQGTQVTVSS
polyreactivity (PSR sort gate): low polyreactivity

Here's the next entry for you.
## Input Query: polyreactivity (PSR sort gate); subject: "QVQLQESGGGLVQAGGSLRLGCAASGYISGFNEMGWYRQAPGKERELDAAITNGGISNYADSVKGRFTISRDNAKNTVYLQMNSLKPEDTAMYYCAAGDFDQSNHAYWGQDTQVTVSS"
## Output high polyreactivity

---

# method.notes: yeast display, Sf9 membrane polyspecificity reagent, FACS + sequencing; frameworks hold sequencing errors
property.label: polyreactivity (PSR sort gate)

Example sequences with recorded polyreactivity (PSR sort gate):
seq.string: QVQLVESGGGLVQAGGSLRLICAASGITFLRYAMGWYRQAPGKERELVAAISTRGGSTYYADSVKGRFTISRDNAKNTVYLQMNSLKPEDTAVYYCAAAGVTGSYGGKGRWYDFWGQGSQVTVSS
polyreactivity (PSR sort gate): high polyreactivity
//
seq.string: QVQLVESGGGLVQAGGSRSLSCAASGRNFYYYTMGWYRQAPGKERELVAAISWGGVNTDYADSVKGRFTISRDNAKNTVYLQMNSLKPEDTAVYYCAAGRWSVGTYDYWGQGTQVTVSS
polyreactivity (PSR sort gate): low polyreactivity
//
seq.string: QVQLVEAGGGLVQAGGSLRLSCAASGGIFSTYTMRWYRQAPGKERELVAAITTGNSTYYADSVKVRFTISRDNAKNTVYLQMNSLKPEDSAVYYCAAFADSRDYYRRLIHDGYDYWGQGTQVTVSS
polyreactivity (PSR sort gate): low polyreactivity
//
seq.string: QVQLVESGGGLVQARGSLRLSCAASGRIFSYNDMGWYRQAPGTERELVAVISIRGGGTYYADSVKGRFTISRDNAKNTVYFQMNSLKPEDTAVYYCNAEYVTFGEEYGYWGQGTQVTVSS
polyreactivity (PSR sort gate): low polyreactivity
//
seq.string: QVQLVESGGGLVQAGGSLRLSCAASGSIFWSYAMGWYRQAPGKERELVAAITWSGGNTYADSVKGRFTISRDNAKNTVYLQMNSLTPEDTAVYYCAAYPAHGTKWYVYPSHDDYWGQGTQVNVSS
polyreactivity (PSR sort gate): low polyreactivity

## Input Query: polyreactivity (PSR sort gate); subject: "QVQLVESGGGLVQAGGSLRLSCAASGSTFWKYIMGWYRQAPGKERELVAAITTRGGSTYADSVKGRFTISRDNAKNTVYLQMNSLKPEDTAVYYWAATKFWYYGYDYWGQGTQVTVSS"
## Output low polyreactivity

## Input Query: polyreactivity (PSR sort gate); subject: "QVQLVESGGGLVQAGGSLRLSCAASGSTLIFYAMGWYRQAPGKERELVAAIRFSGGTTYYADSVKGRFTISRDNAKNTVYLQMNSLKPEDTAVYDCAADPRPAYGYYYLYADFDYWGLGTQVTVSS"
## Output low polyreactivity

## Input Query: polyreactivity (PSR sort gate); subject: "QVQLVESGGGLVQAGGSLRLSCAASGITFGYYAMGWSRQAPGKERELVAAINWRGGNTYYADSVKGRFTISRDNAKNTVYLQMNSLKPEDTAVYYCNALYKRYTDYDYWGQGSQVTVSS"
## Output high polyreactivity

## Input Query: polyreactivity (PSR sort gate); subject: "QVQLVESGGGLVQAGGSLRLSCAASGSTLGRNAMGWYRQAPGKERELVASITRSGGSTYYADSVKGRFTISRDNAKNTVYLQMNSLKPEDTAVYYCAAEVQGQVGEFDYWGQGTQVTVSS"
## Output low polyreactivity

## Input Query: polyreactivity (PSR sort gate); subject: "QVQLVESGGGLVQAGGSLRLSCAASGSIFAWYAMGWYRQAPGKERELVATITWSGGSTYYADSVKGRFTISRDNAKNTVYLQMNSLKPEDTAVYYCAAEVVGIWYDLWYQGDYWGQGTQVTVSS"
## Output low polyreactivity

## Input Query: polyreactivity (PSR sort gate); subject: "QVQLVESGGGLVQAGGSLRLSCAASGSIFGLNDMGWYRQAPGKERELVAGISSGGSTYYADSVKGRFTISRDNAKNTVYLQMNSLKPEDTAVYYCATEGRWPNASYGDYDYWGQGTQVTVSS"
## Output low polyreactivity
